The reader will find reported normalized RNA/DNA level without ligand (log10) values listed item by item below.
B1: library; a variant is named by its letters at N, in order (parent)
chain: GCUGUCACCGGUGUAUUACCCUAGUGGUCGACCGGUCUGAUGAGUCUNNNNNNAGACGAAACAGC

Variants of: B1
Protocol: normalized RNA/DNA level without ligand (relative to sTRSVctl = 100) (log10 (% of sTRSVctl)); ligand: hypoxanthine (xanthine aptamer); higher = less ribozyme self-cleavage, higher mRNA level
Measurement Context: HEK293T, reporter: mCherry (pCS4076), ligand present: no
Lab note: write the figure by itself, no unit.

Examples with answers:
variant_spec=CAGGAG numeric_value=1.47
variant_spec=AUGGGC numeric_value=1.81
variant_spec=GGGUAG numeric_value=1.44
variant_spec=AGAGAU numeric_value=1.73
variant_spec=GUUUGC numeric_value=1.61

For CUAGGG , what is its reported normalized RNA/DNA level without ligand (log10)?
1.53

For CCAUAA , what is its reported normalized RNA/DNA level without ligand (log10)?
1.8

For CAAAGU , what is its reported normalized RNA/DNA level without ligand (log10)?
1.82

For GUGCUU , what is its reported normalized RNA/DNA level without ligand (log10)?
1.89

For ACGAAC , what is its reported normalized RNA/DNA level without ligand (log10)?
1.58

For GUCGUC , what is its reported normalized RNA/DNA level without ligand (log10)?
1.93

For AUGACC , what is its reported normalized RNA/DNA level without ligand (log10)?
1.9

For CUGCCC , what is its reported normalized RNA/DNA level without ligand (log10)?
1.97
